Each item that follows carries a reported yeast fitness (ln).
B1: tRNA (parent)
chain: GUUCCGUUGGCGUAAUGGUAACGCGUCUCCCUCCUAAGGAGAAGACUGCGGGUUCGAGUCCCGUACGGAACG

# Variants of: B1
# ASSAY: yeast fitness, log relative to wild type (ln ratio); higher = fitter; tRNA-Arg(CCU), competitive growth, 37 C, 1 M NaCl
Give only the figure.

{"MUTATION DESCRIPTOR": "G1A U2C G6U C46U C66A A70G", "yeast fitness (ln)": -0.0166}
{"MUTATION DESCRIPTOR": "U2C G6A C46U A70G C71U", "yeast fitness (ln)": -0.0308}
{"MUTATION DESCRIPTOR": "U2G G6U C66U", "yeast fitness (ln)": -0.0894}

INPUT: I would be grateful if you could share the reported yeast fitness (ln) for U2G G6U C46U A70G .
OUTPUT: -0.104

INPUT: Need yeast fitness (ln) of G1A G6U C27U A43C C46U C66A A70G C71U , thanks.
OUTPUT: -0.377

INPUT: So what does the record say about yeast fitness (ln) for G1A U2G G6U C46U C66U A70U C71U ?
OUTPUT: -0.722

INPUT: // returns reported yeast fitness (ln) for input U2C G6U A43C C46U A70G
OUTPUT: -0.113

INPUT: Find the recorded yeast fitness (ln) belonging to U2C G6U A43C C66A A69G A70G and report it.
OUTPUT: -0.029

INPUT: Which yeast fitness (ln) is reported for this variant? G1A U2G G6A C27U A43C A70G C71U
OUTPUT: -0.344

INPUT: Looking for the measured yeast fitness (ln) of A43C C46U C66A A70G C71U , can you help?
OUTPUT: -0.0713

INPUT: Recorded yeast fitness (ln) for G1A U2G C27U A43C C66U A69G A70U , please?
OUTPUT: -0.363

INPUT: Query: yeast fitness (ln); subject: G6U C66U A70G C71U
OUTPUT: -0.168

Hello, the source for this data is the RNAGym collection of RNA variant scans (doi:10.1038/s41586-018-0170-7), in case you need it.
